System: cancer cell lines
PROTOCOL_NOTES: Multiplexed cytotoxicity assay: cell proliferation (relative cell count IC50, GI50)
Type: cell-based
ASSAY_CONDITIONS: Homo sapiens, FaDu, FADU (Head and Neck)
REPORTED_METRIC: IC50 (nM)

> print(dat)
                         structure.notation  observed.value
1  C[C@]1(C(N)=O)CC[C@@H](n2c(Nc3c(Cl)cc(Cl)cc3Cl)nc3cnc(N[C@@H]4CCOC[C@H]4F)nc32)CC1             787

---

PROTOCOL_NOTES: Approximate solubility in various solvents at room temperature
Format: physicochemical
ASSAY_CONDITIONS: IPAc, organic solvent or mixture, thermodynamic from solid
REPORTED_METRIC: solubility at 1 day

> print(dat)
                                   molecule  observed.value
1  C[C@]1(C(N)=O)CC[C@@H](n2c(Nc3c(Cl)cc(Cl)cc3Cl)nc3cnc(N[C@@H]4CCOC[C@H]4F)nc32)CC1 [Form A]      > 50 mg/mL
